# growth inhibition by drug alone annotations
test system: RIVA; assay: growth inhibition by drug alone (1 - RLU/untreated control) (fraction); higher = stronger inhibition; details: 10 nM; time (day): 4; 177Lu-lilotomab satetraxetan 0 ug/ml
In your answer, state the number alone without any accompanying words.

See these solved cases before continuing.
Nc1nc(Nc2ccc(S(N)(=O)=O)cc2)nn1C(=O)c1c(F)cccc1F; -0.0123
Cc1cnc(-c2cnc(NCCNc3ccc(C#N)cn3)nc2-c2ccc(Cl)cc2Cl)[nH]1; 0.0911
CCOc1cc2ncc(C#N)c(Nc3ccc(F)c(Cl)c3)c2cc1NC(=O)/C=C/CN(C)C [Pelitinib (EKB-569)]; -0.214
C#CCN(C)CC1=Cc2ccccc2Oc2ccccc21; -0.0211
CCc1ccc(CCOc2ccc(CC3SC(=O)NC3=O)cc2)nc1 (stereo not drawn) [Pioglitazone (Actos)]; -0.212
CC[C@H](Nc1ncnc2[nH]cnc12)c1nc2cccc(F)c2c(=O)n1-c1ccccc1; -0.203
CN(NC(=O)CC(=O)NN(C)C(=S)c1ccccc1)C(=S)c1ccccc1 [Elesclomol]; 0.964
COc1cc2c(N3CCN(C(=O)Nc4ccc(OC(C)C)cc4)CC3)ncnc2cc1OCCCN1CCCCC1 [Tandutinib (MLN518)]; -0.175
Cc1[nH]c2ccccc2c1CCNCc1ccc(/C=C/C(=O)NO)cc1 [Panobinostat]; 0.535
CNC(=O)c1cc(Oc2ccc(NC(=O)Nc3ccc(Cl)c(C(F)(F)F)c3)cc2)ccn1 [Sorafenib (Nexavar)]; -0.0584

Input: Query: growth inhibition by drug alone; subject: O=C1C(Cl)=C(NCCN2CCOCC2)C(=O)c2ncccc21
Output: 0.0904

Input: Query: growth inhibition by drug alone; subject: CNC(=O)c1ccc(N2C(=S)N(c3ccc(C#N)c(C(F)(F)F)c3)C(=O)C2(C)C)cc1F [MDV3100 (Enzalutamide)]
Output: 0.0471

Input: Query: growth inhibition by drug alone; subject: COc1nc(C)cnc1NS(=O)(=O)c1cccnc1-c1ccc(-c2nnco2)cc1 [Zibotentan (ZD4054)]
Output: -0.0294

###

tested on: RIVA; assay: growth inhibition by drug plus 177Lu-lilotomab satetraxetan (1 - RLU/untreated control) (fraction); higher = stronger inhibition; conditions: 100 nM; time (day): 3; 177Lu-lilotomab satetraxetan 0.5 ug/ml
parameter: growth inhibition by drug plus 177Lu-lilotomab satetraxetan
In your answer, state the number alone without any accompanying words.

See these solved cases before continuing.
N#Cc1c(O)c2c(-c3ccc(-c4ccccc4O)cc3)csc2[nH]c1=O; 0.402
CN1CCN(c2cccc(Nc3nc4c(-c5ccc(S(C)(=O)=O)cc5)cccn4n3)c2)CC1; 0.396
CC(=O)O[C@]1(C(C)=O)CC[C@H]2[C@@H]3C[C@H](C)C4=CC(=O)CC[C@]4(C)[C@H]3CC[C@@]21C [Medroxyprogesterone acetate]; 0.235

Alright, here's another compound for you.
Input: Query: growth inhibition by drug plus 177Lu-lilotomab satetraxetan; subject: C=C1/C(=C\C=C2/CCC[C@]3(C)[C@@H]([C@H](C)/C=C/[C@H](C)C(C)C)CC[C@@H]23)C[C@@H](O)C[C@@H]1O
Output: 0.47

###

system: RIVA; assay: growth inhibition by drug plus 177Lu-lilotomab satetraxetan (1 - RLU/untreated control) (fraction); higher = stronger inhibition; settings: 10 nM; time (day): 3; 177Lu-lilotomab satetraxetan 0.5 ug/ml
Tag: Met if measured growth inhibition by drug plus 177Lu-lilotomab satetraxetan is not below 0.5, Not met if it is.

Would you please look over these solved cases?
O=C(O)C(=O)O.[NH-]C1CCCCC1[NH-].[Pt+2] (configuration not stated) [Oxaliplatin (Eloxatin)]; Met
Cc1cn(-c2cc(NC(=O)c3ccc(C)c(Nc4nccc(-c5cccnc5)n4)c3)cc(C(F)(F)F)c2)cn1; Not met

Switching to the query record.
Input: Reported growth inhibition by drug plus 177Lu-lilotomab satetraxetan at or above 0.5? C=CC[C@@H]1/C=C(\C)C[C@H](C)C[C@H](OC)[C@H]2O[C@@](O)(C(=O)C(=O)N3CCCC[C@H]3C(=O)O[C@H](/C(C)=C/[C@@H]3CC[C@@H](O)[C@H](OC)C3)[C@H](C)[C@@H](O)CC1=O)[C@H](C)C[C@@H]2OC
Output: Met

###

test system: RIVA; experiment: growth inhibition by drug alone (1 - RLU/untreated control) (fraction); higher = stronger inhibition; details: 10 nM; time (day): 3; 177Lu-lilotomab satetraxetan 0 ug/ml
Where a name gives a salt, the structure may show the parent alone.
parameter: growth inhibition by drug alone
In your answer, state the number alone without any accompanying words.

See these solved cases before continuing.
O=c1cc(N2CCOCC2)oc2c(-c3cccc4c3sc3ccccc34)cccc12; 0.21
C[N+](C)([O-])CCNc1ccc(NCC[N+](C)(C)[O-])c2c1C(=O)c1c(O)ccc(O)c1C2=O [Banoxantrone dihydrochloride]; -0.171
CCN(CC)CCOc1ccc(Nc2ncc3cc(-c4c(Cl)cccc4Cl)c(=O)n(C)c3n2)cc1; -0.00347
C[C@]12CC[C@@H]3c4ccc(O)cc4C[C@@H](CCCCCCCCC[S+]([O-])CCCC(F)(F)C(F)(F)F)[C@H]3[C@@H]1CC[C@@H]2O (stereo partly drawn); -0.00571

Input: Query: growth inhibition by drug alone; subject: Nc1ccn([C@@H]2O[C@H](CO)[C@@H](O)[C@@H]2O)c(=O)n1
Output: -0.0997

Input: Query: growth inhibition by drug alone; subject: CCCCCCCCc1ccc(CCC(N)(CO)CO)cc1
Output: 0.0298

Input: Query: growth inhibition by drug alone; subject: NC(=O)c1ccc2nc(-c3ccc(Oc4ccc(Cl)cc4)cc3)[nH]c2c1
Output: -0.00863

Input: Query: growth inhibition by drug alone; subject: CCCCCCCc1ccc(CCc2cccc(O)c2C(=O)O)cc1
Output: -0.000498

###

tested on: RIVA; experiment: growth inhibition by drug alone (1 - RLU/untreated control) (fraction); higher = stronger inhibition; conditions: 100 nM; time (day): 4; 177Lu-lilotomab satetraxetan 0 ug/ml
Counter-ions that a name gives are not always drawn.
Tag: Criterion met if measured growth inhibition by drug alone is not below 0.02, Criterion not met if it is.

COc1cc(C(=O)NC(=S)Nc2cccc(NC(=O)c3ccccc3)c2)cc(OC)c1OC; Criterion met
Nc1nc(OCc2cc(Br)cs2)c2[nH]cnc2n1 [Lomeguatrib]; Criterion not met
CN(CCOc1ccc(CC2SC(=O)NC2=O)cc1)c1ccccn1 (stereo not drawn) [Rosiglitazone (Avandia)]; Criterion not met
COC(=O)Nc1ccc(-c2nc(N3CCOCC3)c3cnn(C4CCN(C(=O)OC)CC4)c3n2)cc1; Criterion not met

Input: Reported growth inhibition by drug alone at or above 0.02? CC[C@H](CO)Nc1nc(NCc2ccccc2)c2ncn(C(C)C)c2n1 [Roscovitine (Seliciclib, CYC202)]
Output: Criterion not met

Input: Reported growth inhibition by drug alone at or above 0.02? CC/C(=C(\c1ccccc1)c1ccc(OCCN(C)C)cc1)c1ccccc1 [Tamoxifen Citrate (Nolvadex)]
Output: Criterion met

Input: Reported growth inhibition by drug alone at or above 0.02? O=c1cc(-c2cccc3c2Sc2ccccc2S3)oc(N2CCOCC2)c1
Output: Criterion not met

Input: Reported growth inhibition by drug alone at or above 0.02? O=c1cc(N2CCOCC2)oc2c(-c3cccc4c3sc3ccccc34)cccc12
Output: Criterion not met

Input: Reported growth inhibition by drug alone at or above 0.02? Nc1nc(F)nc2c1ncn2[C@@H]1O[C@H](CO)[C@@H](O)[C@@H]1O [Fludarabine (Fludara)]
Output: Criterion not met

Input: Reported growth inhibition by drug alone at or above 0.02? COc1ccc(-c2ccc3c(N4CCOCC4)nc(N4C[C@@H](C)O[C@@H](C)C4)nc3n2)cc1CO
Output: Criterion met

Input: Reported growth inhibition by drug alone at or above 0.02? CNCc1ccc(-c2[nH]c3cc(F)cc4c3c2CCNC4=O)cc1
Output: Criterion not met

Input: Reported growth inhibition by drug alone at or above 0.02? O=C(NC1CCNCC1)c1n[nH]cc1NC(=O)c1c(Cl)cccc1Cl
Output: Criterion not met

Input: Reported growth inhibition by drug alone at or above 0.02? CC[C@H]1OC(=O)[C@H](C)[C@@H](O[C@H]2C[C@@](C)(OC)[C@@H](O)[C@H](C)O2)[C@H](C)[C@@H](O[C@@H]2O[C@H](C)C[C@H](N(C)C)[C@H]2O)[C@](C)(O)C[C@@H](C)CN(C)[C@H](C)[C@@H](O)[C@]1(C)O [Azithromycin (Zithromax)]
Output: Criterion met

Input: Reported growth inhibition by drug alone at or above 0.02? Nc1nc(N)c(N=O)c(OCC2CCCCC2)n1
Output: Criterion not met

Input: Reported growth inhibition by drug alone at or above 0.02? CC(=O)Nc1cccc(-n2c(=O)n(C3CC3)c(=O)c3c(Nc4ccc(I)cc4F)n(C)c(=O)c(C)c32)c1
Output: Criterion met
